Let's look at some molecules and their measured cytotoxicity at 10 µM.
# test_description: Toxicity liver stage against HepG2, at 10uM
# Assay type: cell-based
# Design: test concentration 10 uM, cell line HepG2-A16-CD81EGFP
# condition_description: human, HepG2-A16-CD81EGFP cells; read-out: INHIBITION
Number in %, nothing else.

CCOc1cc(CNCCCn2ccnc2)cc(Cl)c1OCC : 1.82
O=C(NCC(F)(F)F)C(c1cccnc1)N1CCCC1 (configuration not stated) : 2.26
O=C(Nc1cnn(Cc2ccc(F)cc2Cl)c1)C1CC1 : -4.83
CN(C)CCN1C(=O)CCC12CCCN(C(=O)N(C)C)CC2 (configuration not stated) : 4.56
CCOCCC(=O)Nc1cccc(Cl)c1C(N)=O : -8.59

Query: Answer with the recorded cytotoxicity at 10 µM for the molecule listed here: CC(=O)N1CCOC(c2cncc(CCC(N)=O)n2)C1 (configuration not stated)
Reply: -2.74
